Hello, the source for this data is patent US8044074B2, in case you need it.

Target: UniProt O14649
Test: Activity on the TASK-1 channel, two-microelectrode voltage clamp on xenopus oocytes
Settings: TASK-1 expressed in Xenopus laevis oocytes; percent inhibition of control current fitted with Hill equation; room temperature; read-out: mTask-1 IC-50
Measurement type: IC50
Dear colleague, please send the value followed by its unit.

What does the record list as IC50 for O=c1ccccn1[C@@H](c1ccc(F)cc1)[C@H](OCC1CC1)c1ccc(F)cc1 (racemic) [Example 9] ? 3.1 µM
